test.name: Cell Viability - N2a (AID 540);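 further: cells exposed to compound for 40 h at 37 °C; nearly all actives have a fitted effect of over 45% in size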
test.conditions: N2a mouse neuroblastoma cell viability; series mostly up to 92.2 µM
Records with an inconclusive call do not appear. Active and inactive are the calls of the source. The call rests on the fitted dose curve; in most records, active means well fitted cell-killing curve with a large enough effect; inconclusive means small, poorly fitted or top-dose-only effect; inactive means flat fitted curve, though single readings scatter.
observable: outcome

Recorded outcome, per entry:
NC(=O)c1ccccc1O :: inactive
CCCCC(CC)COC(=O)c1ccc(N(C)C)cc1 (stereo unspecified) :: inactive
C/C=C/c1ccc(O)c(OC)c1 :: inactive
C=C[C@H]1CN2CC[C@H]1C[C@@H]2[C@@H](O)c1ccnc2ccc(OC)cc12 :: inactive
CCCN(CCC)S(=O)(=O)c1ccc(C(=O)O)cc1 :: inactive

Next compound, outcome to be filled in.
Entry under review: `CCOc1ccccc1C(N)=O` . Reported outcome?
inactive

====

test.name: qHTS of pediatric cancer cell lines to identify multiple opportunities for drug repurposing: Primary screen for TC32 cells (AID 1347089); further: nearly all actives have a fitted effect of over 60% in size
test.conditions: TC32 Ewing sarcoma viability, CellTiter-Glo luminescence, 48 h; series mostly up to 45.8 µM
Results filed as inconclusive are left out. Calls of active or inactive are those of the source. The call rests on the fitted dose curve; in most records, active means well fitted cell-killing curve with a large enough effect; inconclusive means small, poorly fitted or top-dose-only effect; inactive means flat fitted curve, though single readings scatter.
observable: outcome

Some molecules with known outcome results, for comparison:
O=C(O)C(Cc1cc(I)c(O)c(I)c1)c1ccccc1 (stereo unspecified) :: inactive
CCOc1ccccc1C(N)=O :: inactive
O=C1OC2(c3ccccc31)c1cc(Br)c(O)c(Br)c1Oc1c2cc(Br)c(O)c1Br :: inactive
CC(=O)N[C@@H](CCC(=O)O)C(=O)O :: inactive

// outcome lookup, key: `CC(=O)NCCCCCC(=O)O`
inactive

If you can, please state the reported outcome value of `O=[N+]([O-])c1cccc(S(=O)(=O)NCCNS(=O)(=O)c2cccc([N+](=O)[O-])c2)c1` .
inactive

Requested read-out: outcome. Entry: `CN(C)C(=O)Nc1ccc(Cl)c(Cl)c1`
inactive

What outcome value was documented for this molecule, `Nc1nc(N)c(-c2ccccc2)s1` ?
inactive

So what's the measured outcome for this one? `CCN1CCN(C(=O)N[C@@H](C(=O)N[C@@H]2C(=O)N3C(C(=O)O)=C(CSc4nnnn4C)CS[C@H]23)c2ccc(O)cc2)C(=O)C1=O`
inactive

Can you share its outcome? I mean this molecule: CCCCC(CC)COC(=O)c1ccc(N(C)C)cc1 (stereo unspecified)
inactive

Item under review: C[N+]12CCC(CC1)C(OC(=O)C(O)(c1ccccc1)c1ccccc1)C2 (stereo unspecified) . Reported outcome?
inactive

====

test.name: qHTS of pediatric cancer cell lines to identify multiple opportunities for drug repurposing: Primary screen for NB-EBc1 cells (AID 1347095)
test.conditions: NB-EBc1 neuroblastoma viability, CellTiter-Glo luminescence, 48 h; series mostly up to 46 µM
Procedure: Drug repurposing or repositioning has been offered as a strategy for drug development in oncology programs. This approach has special potential for childhood cancers and other rare or orphan diseases, where the expected return on new drug development has been a disincentive to pharmaceuticals. […] We employed a titration-based paradigm (quantitative high-throughput screening or qHTS), where all compounds were tested at multiple concentrations for their effect on cell viability. […]
Inconclusive results are not listed. Active and inactive are the calls of the source. Calls come from the whole dose curve; as a rule, active = well fitted cell-killing curve with a large enough effect; inconclusive = small, poorly fitted or top-dose-only effect; inactive = no such curve, though single readings can be large or run the other way.
Result category, one only: active, inactive

Use these answered entries as a reference point.
NS(=O)(=O)Cc1noc2ccccc12 :: inactive
CCCCN=C(N)N=C(N)N :: inactive
c1ccc(-c2nc[nH]c2-c2ccccc2)cc1 :: inactive
COc1ccc(C(=O)c2ccccc2)c(O)c1 :: inactive
CNCCCCOc1ccccc1Cc1ccccc1 :: inactive
CC(C)(C)NCC(O)COc1cccc2c1C[C@H](O)[C@H](O)C2 (some centres undefined) :: inactive

What did the test return for `Nc1ccc(C(=O)NCC(=O)O)cc1` ?
inactive

Could you check what this test reported for `COc1cc(C(=O)NCc2ccc(OCCN(C)C)cc2)cc(OC)c1OC` ?
inactive

I'd appreciate the recorded outcome for `CC1(C)OC[C@@H]2O[C@@]3(C(=O)O)OC(C)(C)O[C@H]3[C@@H]2O1` from this test.
inactive

Record lookup: outcome of this test for `Cc1c(-c2ccccc2)oc2c(C(=O)OCCN3CCCCC3)cccc2c1=O` ?
inactive

# lookup: test call for `CNCCc1ccccn1`
inactive

Recorded call for `Nc1ccc(S(=O)(=O)Nc2cnc3ccccc3n2)cc1` ?
inactive

# fetch the recorded call for `CN(CCCN1c2ccccc2CCc2ccccc21)CC(=O)c1ccc(Cl)cc1` here
inactive
